// data source = the supplement of paper PMC12764529

- PROTOCOL_TEXT: folding stability dG unfold from trypsin proteolysis; higher = more stable
MEASURED_PARAMETER: folding stability dG unfold
Remember to quote the unit after the number.

[
  {
    "SEQUENCE_CONTENT": "SAKLIRDLLRDHGFPIKNIDVQKNPNGKTYISIEIKMYTPEYKNDEGRPKPRPVEMTATFPADDLLDALSAG [r14_16_TrROS]",
    "RESULT": "0.91 kcal/mol"
  }
]

// next entry
Return reported folding stability dG unfold; argument: SAGGSAGGSAGVPVVVRTVTGPEGGYVVVEFPNLKKVVLLPFTDGKPRPVVFDTDEVLKLVSAGGSAGGSAG [r3_426_TrMRF]
1.04 kcal/mol

* * *

- PROTOCOL_TEXT: folding stability dG unfold (combined trypsin and chymotrypsin); higher = more stable
The threshold is inclusive: folding stability dG unfold of exactly 1 kcal/mol counts as Fulfilled; values below receive Not fulfilled.

[
  {
    "SEQUENCE_CONTENT": "SMTPEEVKALAEELAERLKEEGYEVEVKVTVEEVDGEKYVTIEIEVRRPDGSTETFRLVIREDGSIEIYPSA [r9_1027_TrROS_Hall]",
    "CLASS_LABEL": "Fulfilled"
  }
]

folding stability dG unfold >= 1 kcal/mol for SASLTLTITLPDGAKITSITVEEVDGELVLTEITVETTNENGEKTTVTRTIVLKLPPAPPAHPDDPALKSAG [r14_95_TrROS_Hall] ?
Fulfilled

State whether the measured folding stability dG unfold reaches 1 kcal/mol, counting equality as reaching it, for SAGKPESFSIEAPPIAPPEFPLGGSYRTLPNGEVLVLITLPDGTVLVLPSLDELRELRESGLPIDISPSSAG [r5_42_TrMRF]
Fulfilled

Check this sequence for folding stability dG unfold at or above 1 kcal/mol: SAGSAKELAKEIADTIADEMQDRHPGFKPTEVEVKEIEVNPENGWVKINIEMRFPNGKPIWKPEITIPSAGG [r19_53_TrROS]
Not fulfilled

Say whether SAGGSAGGGPPLPPPVLVLPARVERVFYDPVTGELTVETVDFPVVIRPDGSVYLGDRWIPPELLSAGGSAGG [r6_514_TrMRF] shows folding stability dG unfold of 1 kcal/mol or more.
Fulfilled

* * *

- PROTOCOL_TEXT: folding stability dG unfold (combined trypsin and chymotrypsin); higher = more stable
MEASURED_PARAMETER: folding stability dG unfold (kcal/mol)
# unit: kcal/mol | format: bare number

Answered examples (6):
[
  {
    "SEQUENCE_CONTENT": "SAGGSAGGSMPLKLVELKPLEESTGENGVPTVRVELVLERPGERITVELEVSPEEIEALIKKLLSAGGSAGG [r6_379_JUSTAS]",
    "READOUT_NUMBER": 1.56
  },
  {
    "SEQUENCE_CONTENT": "SAGGSPSTVVPTLLTLEIVKKDEKGNETSETIPVLVEDSPEEARERLIEEIEKKYGAEVVKVTVKPESAGGS [r16_511_JUSTAS]",
    "READOUT_NUMBER": -0.608
  },
  {
    "SEQUENCE_CONTENT": "SAGGSAGGSAGGSVAYVAPDGDKLIVRVVRPDGSVEEKEFDSLEDLKTLPDDVPVAFLVSAGGSAGGSAGGS [r4_447_TrMRF]",
    "READOUT_NUMBER": 0.516
  },
  {
    "SEQUENCE_CONTENT": "SAGGSAGGSAMTVRIEFEDGSVKEIPAEEFSEDFIKALPKKYKVSEYPEPPLDNNKSNILKSAGGSAGGSAG [r3_69_JUSTAS]",
    "READOUT_NUMBER": 0.431
  },
  {
    "SEQUENCE_CONTENT": "SEPRYHVEIRLPVLLVVPPELLEPDPERDSYRLPEDDLPVHPDAVIPREVTFSGPMTAEEVVRRTLALLSSA [r9_165_TrMRF]",
    "READOUT_NUMBER": 1.04
  },
  {
    "SEQUENCE_CONTENT": "SAGGSAGGSAGKKPIKEVTITLPPGAKIVKIEIEKTEDGKYILKITVEVDGKLYEFTFELSAGGSAGGSAGG [r11_1013_TrROS_Hall]",
    "READOUT_NUMBER": 3.98
  }
]

For the sequence shown here, SAGGSETVRVEVEVELENGYRVRVEMEFDLETKEMTMRVEVEPVLELSPEELEKLKKLLEELGIEVSAGGSA [r2_304_TrROS_Hall] , give the reported folding stability dG unfold.
3.12

// returns reported folding stability dG unfold for input SAGGSAGGGNVYVKIEIYPYDPKNGEPQEQDITIPFETKEDAKDEIEKLLNMPNGMWIKIEVVDSAGGSAGG [r7_0_TrROS]
1.47
